Target: EGFR ins SVD (insertion of SVD between D770 and N771) (Homo sapiens, UniProt P00533, INS767SVD)
Sequence (P00533 with tags, fused parts or gaps INS767SVD limits assumed): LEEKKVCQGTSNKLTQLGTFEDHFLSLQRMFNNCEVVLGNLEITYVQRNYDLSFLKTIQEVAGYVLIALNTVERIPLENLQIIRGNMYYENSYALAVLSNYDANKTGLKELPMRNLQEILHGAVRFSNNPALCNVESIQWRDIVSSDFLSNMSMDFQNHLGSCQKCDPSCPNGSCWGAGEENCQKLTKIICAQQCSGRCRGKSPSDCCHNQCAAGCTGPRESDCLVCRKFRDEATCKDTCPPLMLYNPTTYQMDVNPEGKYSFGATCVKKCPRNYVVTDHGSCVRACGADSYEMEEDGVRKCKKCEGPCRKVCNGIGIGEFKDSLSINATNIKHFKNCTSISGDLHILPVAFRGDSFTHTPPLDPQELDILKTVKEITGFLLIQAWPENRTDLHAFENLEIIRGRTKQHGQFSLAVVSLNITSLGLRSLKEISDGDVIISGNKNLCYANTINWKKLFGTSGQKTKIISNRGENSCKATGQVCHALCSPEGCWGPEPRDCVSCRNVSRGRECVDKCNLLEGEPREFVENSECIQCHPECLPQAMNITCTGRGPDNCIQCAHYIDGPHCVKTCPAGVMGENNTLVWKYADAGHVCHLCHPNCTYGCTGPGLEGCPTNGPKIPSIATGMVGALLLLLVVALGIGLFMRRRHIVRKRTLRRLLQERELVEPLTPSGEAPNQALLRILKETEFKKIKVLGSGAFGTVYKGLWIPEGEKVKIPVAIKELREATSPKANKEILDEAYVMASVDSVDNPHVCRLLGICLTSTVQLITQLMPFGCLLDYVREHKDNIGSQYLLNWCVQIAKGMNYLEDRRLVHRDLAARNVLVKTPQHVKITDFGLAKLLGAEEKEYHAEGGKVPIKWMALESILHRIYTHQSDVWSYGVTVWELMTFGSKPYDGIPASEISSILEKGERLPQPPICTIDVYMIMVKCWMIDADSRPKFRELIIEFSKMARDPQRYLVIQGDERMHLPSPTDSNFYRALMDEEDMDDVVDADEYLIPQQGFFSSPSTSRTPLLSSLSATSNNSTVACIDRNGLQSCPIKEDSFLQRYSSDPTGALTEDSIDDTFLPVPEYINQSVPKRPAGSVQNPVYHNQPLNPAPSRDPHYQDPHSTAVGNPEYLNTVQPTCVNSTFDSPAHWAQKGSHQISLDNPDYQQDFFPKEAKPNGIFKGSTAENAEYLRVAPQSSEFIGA
Assay: Exon 20-Mutant-EGFR(D770_N771insSVD) kinase assay (TR-FRET)
Type: biochemical
Conditions: Table 9; read-out: mutEGFR (D770_N771insSVD) kinase assay IC50
measured_metric: pIC50
Scale note: pIC50 = -log10(concentration in M).

> print(dat)
                                   molecule  measured.number
1  COC(C)(C)COc1cnccc1-c1[nH]c2c(c1Nc1cccc(F)c1OC(F)F)C(=O)NCC2 [Example 83]             9.78
2  COc1c(Cl)cccc1Nc1c(-c2ccncc2OC[C@@H]2CCCO2)[nH]c2c1C(=O)NCC2 [Example 66]            10.03
3  COC(C)(C)COc1cnccc1-c1[nH]c2c(c1Nc1cc(F)cc(F)c1C)C(=O)NCC2 [Example 40]            10.00

Next item in the queue.
Ask | Please give the measured pIC50 for this molecule: CC(C)(COc1cnccc1-c1[nH]c2c(c1Nc1cccc(F)c1OC(F)F)C(=O)NCC2)N1CCOCC1 [Example 76]
Reply | 9.07

----------
Measurement record for UniProt O43683; quantity recorded: IC50.
Sequence (O43683 704-1085): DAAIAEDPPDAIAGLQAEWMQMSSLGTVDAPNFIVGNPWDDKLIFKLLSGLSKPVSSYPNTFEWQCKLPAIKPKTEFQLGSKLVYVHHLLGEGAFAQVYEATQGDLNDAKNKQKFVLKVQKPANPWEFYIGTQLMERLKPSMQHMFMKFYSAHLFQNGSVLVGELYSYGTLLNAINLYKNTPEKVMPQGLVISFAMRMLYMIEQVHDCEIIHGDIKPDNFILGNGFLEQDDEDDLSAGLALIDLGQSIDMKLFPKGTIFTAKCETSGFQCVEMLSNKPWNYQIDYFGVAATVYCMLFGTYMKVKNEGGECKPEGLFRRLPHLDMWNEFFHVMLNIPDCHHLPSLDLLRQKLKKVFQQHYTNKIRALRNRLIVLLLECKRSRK
Kindly provide the numeric value in nM only, without the unit symbol.

> print(dat)
                            compound.string  experimental.system  measured.metric  measured.number
1  CCOc1c(F)cccc1Nc1c(-c2ccncc2OCC(C)(C)OC)[nH]c2c1C(=O)NCC2       UniProt O43683             IC50             85.8
2  COc1c(F)cccc1Nc1c(-c2ccncc2OCC(C)(C)OC)[nH]c2c1C(=O)NCC2       UniProt O43683             IC50             55.1
3  COCCOc1cnccc1-c1[nH]c2c(c1Nc1ccc(F)c(F)c1OC)C(=O)NCC2       UniProt O43683             IC50              565
4  COC(C)(C)COc1cnccc1-c1[nH]c2c(c1Nc1cccc(F)c1OCC(F)F)C(=O)NCC2       UniProt O43683             IC50             70.1

Next item in the queue.
Ask | Please give the measured IC50 for this compound: `COCCOc1cnccc1-c1[nH]c2c(c1Nc1cccc(F)c1CC(F)F)C(=O)NCC2`
Reply | 111

----------
Documented pIC50 across a set of compounds
Target: EGFR ins SVD (insertion of SVD between D770 and N771) (Homo sapiens, UniProt P00533, INS767SVD)
Assay: Exon 20-Mutant-EGFR(D770_N771insSVD) kinase assay (TR-FRET)
Assay type: biochemical
Conditions: Table 9; read-out: mutEGFR (D770_N771insSVD) kinase assay IC50
Scale note: pIC50 = -log10(concentration in M).

Past entries and their recorded results:
> print(dat)
                                   compound  measured.number
1  COC(C)(C)COc1cnccc1-c1[nH]c2c(c1Nc1cccc(F)c1OC(F)F)C(=O)NCC2 [Example 19]             9.83
2  O=C1NCCc2[nH]c(-c3ccncc3OCCN3CCOCC3)c(Nc3cccc(Cl)c3OC(F)F)c21             9.36
3  CN1CCC[C@H]1COc1cnccc1-c1[nH]c2c(c1Nc1cccc(Cl)c1OC(F)F)C(=O)NCC2             8.90
4  COc1c(F)cc(F)cc1Nc1c(-c2ccncc2OCC(C)(C)OC)[nH]c2c1C(=O)NCC2             9.71
5  COCCOc1cnccc1-c1[nH]c2c(c1Nc1cccc(F)c1Br)C(=O)NCC2            10.07

Ask | Please give the measured pIC50 for this compound: `COCCOc1cnccc1-c1[nH]c2c(c1Nc1cccc(F)c1C)C(=O)NCC2`
Reply | 9.83

Ask | Then what about the compound `Cc1c(Cl)cccc1Nc1c(-c2ccncc2OCCN(C)C)[nH]c2c1C(=O)NCC2` ?
Reply | 9.26

Ask | Then what about the compound `COCCOc1cnccc1-c1[nH]c2c(c1Nc1cccc(Cl)c1Cl)C(=O)NCC2` ?
Reply | 10.04

Ask | Then what about the compound `Cc1c(F)cccc1Nc1c(-c2ccncc2OC[C@@H]2CCCN2C)[nH]c2c1C(=O)NCC2` ?
Reply | 9.29

Ask | Then what about the compound `COCCOc1cnccc1-c1[nH]c2c(c1Nc1cc(F)cc(F)c1OC)C(=O)NCC2` ?
Reply | 9.96
